Please provide measured composite z-score for the entries that follow.
# measured.on: Fibroblast growth factor 10 (Homo sapiens)
# measurement.notes: FGF10 binders on small-molecule microarrays, primary screen, biochemical, small-molecule microarray, 635 nm fluorescence (AID 1102)
# experimental.setup: FGF10 binding, fluorescence 635 nm, higher = more signal
Numbers only.

CCCCC(=C=CC[C@@H](O)c1ccccc1OCCO)C[C@@H](O)c1ccccn1 :: 0.473

Would you be so kind as to report composite z-score for each listed record?
1. CN(C)CCCC[C@@H]1NC(=O)[C@H]2C[C@@H](C(=O)NCCCCCCNC(=O)CS)[C@@H](c3cccc(OCCO)c3)N2C1=O
2. COCCOC(=O)N1C(=O)[C@@]2(c3cc(C#CCNC(N)=O)ccc31)[C@H](c1ccc(O)cc1)N1[C@H](c3ccccc3)[C@H](c3ccccc3)OC(=O)[C@H]1[C@@H]2C(=O)N1CCc2cc(OC)c(OC)cc2C1

Outgoing:
1: 0.124; 2: 1.19

Recorded values, source PubChem BioAssay.
